Measured pKi accompanies every entry in the list below.
TARGET OR SYSTEM: full-length ATR (Homo sapiens (Human), UniProt Q13535)
Sequence (Q13535 whole entry): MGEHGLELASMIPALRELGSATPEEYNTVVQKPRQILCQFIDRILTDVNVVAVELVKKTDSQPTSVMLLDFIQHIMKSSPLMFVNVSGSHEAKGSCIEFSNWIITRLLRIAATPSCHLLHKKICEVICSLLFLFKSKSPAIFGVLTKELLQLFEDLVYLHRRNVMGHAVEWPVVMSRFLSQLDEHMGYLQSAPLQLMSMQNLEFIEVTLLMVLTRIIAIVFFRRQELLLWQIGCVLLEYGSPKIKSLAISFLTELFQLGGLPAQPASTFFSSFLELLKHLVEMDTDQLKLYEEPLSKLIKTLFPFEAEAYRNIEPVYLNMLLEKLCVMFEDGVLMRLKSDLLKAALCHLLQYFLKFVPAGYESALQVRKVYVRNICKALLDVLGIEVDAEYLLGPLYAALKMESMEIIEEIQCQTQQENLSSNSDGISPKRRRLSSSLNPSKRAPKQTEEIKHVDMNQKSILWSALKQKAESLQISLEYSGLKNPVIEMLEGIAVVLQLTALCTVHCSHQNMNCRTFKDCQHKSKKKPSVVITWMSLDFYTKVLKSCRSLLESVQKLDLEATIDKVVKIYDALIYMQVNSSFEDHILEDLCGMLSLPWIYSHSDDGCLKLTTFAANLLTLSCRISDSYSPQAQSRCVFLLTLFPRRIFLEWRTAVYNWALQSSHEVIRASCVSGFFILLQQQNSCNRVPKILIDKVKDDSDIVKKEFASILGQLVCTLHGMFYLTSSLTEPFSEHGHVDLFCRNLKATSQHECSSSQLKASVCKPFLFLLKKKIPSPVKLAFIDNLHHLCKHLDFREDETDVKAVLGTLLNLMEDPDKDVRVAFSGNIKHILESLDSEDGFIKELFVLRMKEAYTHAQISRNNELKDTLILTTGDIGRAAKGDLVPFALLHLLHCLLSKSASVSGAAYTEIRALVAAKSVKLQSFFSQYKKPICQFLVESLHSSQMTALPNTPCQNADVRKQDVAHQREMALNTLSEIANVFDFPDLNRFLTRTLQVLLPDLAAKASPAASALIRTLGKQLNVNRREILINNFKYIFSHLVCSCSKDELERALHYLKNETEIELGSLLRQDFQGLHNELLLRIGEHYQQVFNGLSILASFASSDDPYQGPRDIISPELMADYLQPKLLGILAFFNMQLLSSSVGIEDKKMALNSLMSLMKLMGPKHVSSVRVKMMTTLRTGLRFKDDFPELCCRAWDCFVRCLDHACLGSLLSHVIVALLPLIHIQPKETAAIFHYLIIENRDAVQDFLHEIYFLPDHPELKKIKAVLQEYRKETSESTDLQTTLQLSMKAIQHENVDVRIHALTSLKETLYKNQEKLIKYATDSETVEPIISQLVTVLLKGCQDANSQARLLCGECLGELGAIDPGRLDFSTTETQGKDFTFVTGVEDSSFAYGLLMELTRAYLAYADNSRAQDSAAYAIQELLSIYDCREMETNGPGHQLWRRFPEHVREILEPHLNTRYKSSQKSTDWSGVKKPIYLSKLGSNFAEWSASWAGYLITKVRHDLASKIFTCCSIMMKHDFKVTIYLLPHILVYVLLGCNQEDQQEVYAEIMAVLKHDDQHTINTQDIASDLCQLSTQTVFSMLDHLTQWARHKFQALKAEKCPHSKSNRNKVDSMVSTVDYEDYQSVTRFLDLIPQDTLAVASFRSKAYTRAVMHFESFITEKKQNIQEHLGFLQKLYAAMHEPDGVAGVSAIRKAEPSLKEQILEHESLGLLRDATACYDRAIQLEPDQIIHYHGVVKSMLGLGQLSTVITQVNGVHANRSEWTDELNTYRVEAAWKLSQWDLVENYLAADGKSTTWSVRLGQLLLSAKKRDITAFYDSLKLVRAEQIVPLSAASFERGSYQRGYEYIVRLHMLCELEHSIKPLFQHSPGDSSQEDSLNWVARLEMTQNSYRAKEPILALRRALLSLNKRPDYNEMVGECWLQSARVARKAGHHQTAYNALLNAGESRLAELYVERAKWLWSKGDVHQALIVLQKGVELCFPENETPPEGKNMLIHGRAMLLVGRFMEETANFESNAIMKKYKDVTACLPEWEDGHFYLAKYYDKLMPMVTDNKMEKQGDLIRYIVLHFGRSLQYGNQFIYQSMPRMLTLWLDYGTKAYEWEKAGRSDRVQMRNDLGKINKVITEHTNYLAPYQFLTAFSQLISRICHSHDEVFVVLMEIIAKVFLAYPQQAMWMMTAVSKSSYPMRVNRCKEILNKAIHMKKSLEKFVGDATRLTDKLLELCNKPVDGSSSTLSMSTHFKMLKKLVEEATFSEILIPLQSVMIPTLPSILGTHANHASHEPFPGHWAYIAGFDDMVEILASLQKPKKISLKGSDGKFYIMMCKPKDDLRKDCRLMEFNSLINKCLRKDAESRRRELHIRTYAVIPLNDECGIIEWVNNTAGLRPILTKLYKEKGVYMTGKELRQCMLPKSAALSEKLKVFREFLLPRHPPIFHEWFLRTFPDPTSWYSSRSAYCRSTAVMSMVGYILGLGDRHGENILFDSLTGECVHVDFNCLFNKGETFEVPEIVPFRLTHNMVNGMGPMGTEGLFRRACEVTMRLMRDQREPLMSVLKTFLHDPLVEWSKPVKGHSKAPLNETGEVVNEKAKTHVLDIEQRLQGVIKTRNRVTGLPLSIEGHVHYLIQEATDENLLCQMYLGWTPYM
PROTOCOL TEXT: ATR Inhibition Assay (radioactive-phosphate incorporation)
Type: biochemical
TEST PARAMETERS: read-out: ATR Ki
pKi: −log10 of the molar value.

Previously resolved entries follow.
1. COc1ccc(NC(=O)c2nc(-c3cccnc3)cnc2N)cc1 : 5.30 to 7.00
2. N#Cc1ccncc1-c1cnc(N)c(-c2nnc(-c3ccccc3)o2)n1 : 7.00 to 8.00
3. Nc1ncc(-c2ccc(C(=O)NC3CCOCC3)cc2)nc1C(=O)Nc1ccccc1 : 7.00 to 8.00
4. Nc1ncc(-c2ccc(C(=O)N3CCCNCC3)c(F)c2)nc1-c1nnc(-c2ccccc2)o1 : ≥ 8.00
5. CC(C)S(=O)(=O)c1ccc(-c2cnc(N)c(-c3nnc(-c4ccc(CN(C)C)cc4)o3)n2)cc1 : ≥ 8.00

Kindly review the next compound as well.
Data request: Entry `CC(C)S(=O)(=O)c1ccc(-c2cnc(N)c(-c3nnc(-c4ccc(CNCCN(C)C)cc4)o3)n2)cc1` needs its pKi filled in; supply it.
Data returned: 7.00 to 8.00

Data provenance is patent US10479784B2.
